Values were extracted from patent US8361968B2.

# Study System: hOT7T175 (Homo sapiens, UniProt Q969F8, L364H)
# Sequence (Q969F8 whole entry L364H): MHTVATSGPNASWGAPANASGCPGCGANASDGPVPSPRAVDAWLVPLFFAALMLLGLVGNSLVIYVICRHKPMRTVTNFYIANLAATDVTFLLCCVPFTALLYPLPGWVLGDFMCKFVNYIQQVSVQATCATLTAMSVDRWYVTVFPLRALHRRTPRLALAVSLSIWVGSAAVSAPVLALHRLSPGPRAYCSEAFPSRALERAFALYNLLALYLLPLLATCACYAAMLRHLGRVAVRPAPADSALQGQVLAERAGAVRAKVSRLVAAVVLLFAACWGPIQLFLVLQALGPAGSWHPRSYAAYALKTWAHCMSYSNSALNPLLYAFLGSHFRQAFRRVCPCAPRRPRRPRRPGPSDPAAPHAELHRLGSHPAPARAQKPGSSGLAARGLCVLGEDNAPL
# Test Description: Intracellular Ca ion level-increasing activity using FLIPR in hOT7T175/CHO
# Assay type: cell-based
# Set-up: expressed in transfected cells; host or cells: CHO/dhfr- cells, obtained from ATCC
# Test Parameters: relative, Metastin (1-54) = 1
Square brackets hold non-standard residues; d marks the D form. Peptide text beside a SMILES is read from it. Arg(Me) = CNC(=N)NCCC[C@H](N)C(=O)O
Quantity Measured: Specific Activity (intracellular Ca ion level-increasing activity)

{"Molecule": "CNC(=N)NCCC[C@H](NC(=O)[C@@H](NC(=O)CNC(=O)[C@H](Cc1ccccc1)NC(=O)[C@H](CO)NC(=O)[C@H](CC(N)=O)NC(=O)[C@H](Cc1c[nH]c2ccccc12)NC(=O)[C@H](CC(N)=O)NC(=O)[C@H](N)Cc1ccc(O)cc1)C(C)C)C(=O)N[C@@H](Cc1ccccc1)C(N)=O [Compound No. 213] (H-[dY]NWNSFGV[Arg(Me)]F-NH2)", "Study System": "hOT7T175 (Homo sapiens, UniProt Q969F8, L364H)", "Recorded Result": 2}
{"Molecule": "CNC(=N)NCCC[C@H](NC(=O)[C@H](CC(C)C)NC(=O)CNC(=O)[C@H](Cc1ccccc1)NC(=O)[C@H](CO)NC(=O)[C@H](CC(N)=O)NC(=O)[C@H](Cc1c[nH]c2ccccc12)NC(=O)[C@@H](NC(=O)[C@H](N)Cc1ccc(O)cc1)[C@@H](C)O)C(=O)N[C@@H](Cc1ccccc1)C(N)=O [Compound No. 215] (H-[dY]TWNSFGL[Arg(Me)]F-NH2; N-terminus assumed)", "Study System": "hOT7T175 (Homo sapiens, UniProt Q969F8, L364H)", "Recorded Result": 10}
{"Molecule": "CNC(=N)NCCC[C@H](NC(=O)[C@H](CC(C)C)NC(=O)[C@H](C)NC(=O)[C@H](Cc1ccccc1)NC(=O)[C@H](CO)NC(=O)[C@H](CC(N)=O)NC(=O)[C@H](Cc1c[nH]c2ccccc12)NC(=O)[C@H](CC(N)=O)NC(=O)[C@H](N)Cc1ccc(O)cc1)C(=O)N[C@@H](Cc1ccccc1)C(N)=O [Compound No. 204] (H-[dY]NWNSFAL[Arg(Me)]F-NH2)", "Study System": "hOT7T175 (Homo sapiens, UniProt Q969F8, L364H)", "Recorded Result": 5}
{"Molecule": "CC(=O)NC(=N)NCCC[C@H](NC(=O)[C@H](CC(C)C)NC(=O)CNC(=O)[C@H](Cc1ccccc1)NC(=O)[C@H](CO)NC(=O)[C@H](CC(N)=O)NC(=O)[C@H](Cc1c[nH]c2ccccc12)NC(=O)[C@H](CC(N)=O)NC(=O)[C@H](N)Cc1ccc(O)cc1)C(=O)N[C@@H](Cc1ccccc1)C(N)=O", "Study System": "hOT7T175 (Homo sapiens, UniProt Q969F8, L364H)", "Recorded Result": 1}
{"Molecule": "CC(C)C[C@H](NC(=O)CNC(=O)[C@H](Cc1ccccc1)NC(=O)[C@H](CO)NC(=O)[C@H](CC(N)=O)NC(=O)[C@H](Cc1c[nH]c2ccccc12)NC(=O)[C@H](CC(N)=O)NC(=O)[C@@H](N)Cc1ccc(O)cc1)C(=O)N[C@@H](CCCNC(=N)N)C(=O)N[C@@H](Cc1ccc(Cl)c(Cl)c1)C(N)=O", "Study System": "hOT7T175 (Homo sapiens, UniProt Q969F8, L364H)", "Recorded Result": 3}
